measured-on: Lactoylglutathione lyase (Homo sapiens, UniProt Q04760)
Sequence (Q04760 whole entry, the tested form may be a part): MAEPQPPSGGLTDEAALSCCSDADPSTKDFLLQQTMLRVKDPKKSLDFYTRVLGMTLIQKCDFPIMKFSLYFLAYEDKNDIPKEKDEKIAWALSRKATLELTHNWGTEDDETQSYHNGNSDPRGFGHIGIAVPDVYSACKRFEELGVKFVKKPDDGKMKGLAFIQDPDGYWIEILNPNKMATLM
protocol-summary: Inhibition recombinant human N-terminal 6His-tagged GLO1 (2 to 184 residues) expressed in Escherichia coli using MG as substrate preincubated for 15 to 20 mins followed by substrate addition and measured every 1 min for 8 mins
IC50 strictly under 8 µM means 1.0; at 8 µM or over means 0.0.

| cpd-smiles | measured-on | discrete-label |
| --- | --- | --- |
| Cc1ccc2cccc(NS(C)(=O)=O)c2n1 | Lactoylglutathione lyase (Homo sapiens, UniProt Q04760) | 0.0 |
| CS(=O)(=O)Oc1cccc2cccnc12 | Lactoylglutathione lyase (Homo sapiens, UniProt Q04760) | 0.0 |
| CS(=O)(=O)Nc1ccc(-c2ccc(F)c(F)c2)c2cccnc12 | Lactoylglutathione lyase (Homo sapiens, UniProt Q04760) | 0.0 |
| O=S(=O)(Nc1ccc(CCc2ccccc2)c2cccnc12)c1ccccn1 | Lactoylglutathione lyase (Homo sapiens, UniProt Q04760) | 1.0 |
| COc1ccc(-c2ccc(NS(=O)(=O)c3ccccn3)c3ncccc23)cc1 | Lactoylglutathione lyase (Homo sapiens, UniProt Q04760) | 1.0 |
| O=S(=O)(Nc1ccc(CCc2ccc(F)cc2)c2cccnc12)c1ccccn1 | Lactoylglutathione lyase (Homo sapiens, UniProt Q04760) | 1.0 |
| O=S(=O)(Nc1cccc2cccnc12)c1ccc(F)c(F)c1 | Lactoylglutathione lyase (Homo sapiens, UniProt Q04760) | 1.0 |
| CS(=O)(=O)Nc1ccc(-c2cccs2)c2cccnc12 | Lactoylglutathione lyase (Homo sapiens, UniProt Q04760) | 0.0 |
| CS(=O)(=O)Nc1cccc2ncccc12 | Lactoylglutathione lyase (Homo sapiens, UniProt Q04760) | 0.0 |
| N#Cc1ccc(S(=O)(=O)Nc2cccc3cccnc23)cc1 | Lactoylglutathione lyase (Homo sapiens, UniProt Q04760) | 1.0 |
| CS(=O)(=O)Nc1cccc2cccnc12 | Lactoylglutathione lyase (Homo sapiens, UniProt Q04760) | 0.0 |
| O=S(=O)(Nc1cccc2cccnc12)c1cccnc1 | Lactoylglutathione lyase (Homo sapiens, UniProt Q04760) | 0.0 |
| O=S(=O)(Nc1cccc2cccnc12)c1ccc(F)cc1 | Lactoylglutathione lyase (Homo sapiens, UniProt Q04760) | 1.0 |
| O=S(=O)(Nc1ccc(-c2ccc(Cl)c(Cl)c2)c2cccnc12)c1ccccn1 | Lactoylglutathione lyase (Homo sapiens, UniProt Q04760) | 1.0 |
| O=S(=O)(CCc1ccccc1)Nc1cccc2cccnc12 | Lactoylglutathione lyase (Homo sapiens, UniProt Q04760) | 0.0 |
| CSc1nc2ccc(S(=O)(=O)Nc3cccc4cccnc34)cc2s1 | Lactoylglutathione lyase (Homo sapiens, UniProt Q04760) | 1.0 |
| Cn1cnc(S(=O)(=O)Nc2cccc3cccnc23)c1 | Lactoylglutathione lyase (Homo sapiens, UniProt Q04760) | 1.0 |
| CS(=O)(=O)Nc1ccc(-c2ccc3c(c2)OCO3)c2cccnc12 | Lactoylglutathione lyase (Homo sapiens, UniProt Q04760) | 0.0 |
| CS(=O)(=O)Nc1ccc(-c2ccco2)c2cccnc12 | Lactoylglutathione lyase (Homo sapiens, UniProt Q04760) | 0.0 |
| CC(=O)Nc1cccc2cccnc12 | Lactoylglutathione lyase (Homo sapiens, UniProt Q04760) | 0.0 |
| CS(=O)(=O)Nc1ccc(N2CCCCC2)c2cccnc12 | Lactoylglutathione lyase (Homo sapiens, UniProt Q04760) | 0.0 |
| CNS(=O)(=O)c1cccc2cccnc12 | Lactoylglutathione lyase (Homo sapiens, UniProt Q04760) | 0.0 |
| O=S(=O)(Nc1cccc2cccnc12)C1CC1 | Lactoylglutathione lyase (Homo sapiens, UniProt Q04760) | 0.0 |
| CC(C)S(=O)(=O)Nc1cccc2cccnc12 | Lactoylglutathione lyase (Homo sapiens, UniProt Q04760) | 0.0 |
| O=S(=O)(Nc1cccc2cccnc12)c1ccc2c(c1)OCO2 | Lactoylglutathione lyase (Homo sapiens, UniProt Q04760) | 1.0 |
